Reference for the values: PubChem BioAssay AID2501

experiment: counter assay for TAg ATPase ADP read-out – biochemical, ADP-Hunter, fluorescence, counter-screen (AID 2501);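 further: purified T antigen ATPase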
condition.notes: series mostly up to 100 µM
Among all 2,200 compounds or so, about 1,200 (55%) were called active. So high a share suggests a set chosen from earlier hits. Some of the results follow.
value.kind: IC50

Cc1c(CC(=O)N2CCN(C(=O)C3COc4ccccc4O3)CC2)c(=O)oc2c(O)c(O)ccc12 (stereo not given)	5.3 µM (active)
Oc1ccc(N2CCN(C(c3ccccn3)c3nnnn3C3CCCC3)CC2)cc1 (stereo not given)	3.68 µM (active)
O=[N+]([O-])c1cccnc1SCc1ccccc1	inactive
CCOC(=O)C1=C(N)n2c(s/c(=C\c3ccco3)c2=O)=C(C(=O)OCC)C1c1ccco1 (stereo not given)	inactive

Q) What IC50 value was documented for this compound, CC(C)(C)n1nnnc1C(c1ccncc1)N1CCN(c2ccc(O)cc2)CC1 (stereo not given) ?
A) 6.75 µM (active)
